Data credit: patent US11254745

- assayed-system: T1, extracellular domain of hCD4 fused with human Fc tag (hCD4-hFc) (human, UniProt P01730 26-396)
- T1 construct: extracellular domain; also called human CD4-hFc; hCD4 (ELISA); not shown: human Fc tag
- protocol: ELISA, chimeric antibody on hCD4, method similar to Example 2
- Description: Example 2: Selection of the Anti-hCD4 Hybridoma Antibodies Based on Binding and Gene Reporter Assays The binding interaction between hybridoma antibody and human CD4-hFc was measured by ELISA. […] The colorimetric signals were monitored at 450 nm using a SpectraMax Plus microplate reader (Molecular Devices). For the purified antibody, data were analyzed using GraphPad Prism 5 to calculated the $EC50$. […]
Measured EC50 of individual entries

Examples with their reported EC50 follow.
binder	EC50
Chimeric MT412 anti-CD4 antibody (antibody, human IgG1, kappa, V domains shown) VH: QIQLVQSGPELKKPGETVKISCKASGYTFTDYSMHWVKQAPGKDLKWMGWINTETGEPTYADDFKGRFAFSLETSASTAYLQINNLKNEDTATYFCAREDYYGHDGFLYWGQGTLVTVSS VL: DIVMTQSHKFMSTSVGDRVSITCKASQDVVTTVAWYQQKPGQSPKLLIYWASLRHTGVPDRFTGSGSGTDFTLTISNVQFEDLADYFCQQYSSYPYTFGGGTKLEIKR	0.0165 µg/mL
Chimeric 2B6 anti-CD4 antibody (antibody, human IgG1, kappa, V domains shown) VH: EVQLQESGPSLVKPSQTLSLTCSVTGDSITSGYWNWIRKFPGHKLEFLGYISFADTTNYNPSLKSRVSITRDTSKNQFDLQLKSVTTEDTATYHCARDDYGYYAMDYWGQGISVTVSS VL: DIHLTQTTSSLSASLGDRVTIICRASQDIDNYLNWYQLKPDGTLKLLIYYTSRLHSGVPSRFSGSGSGTEYSLTISNLEREDVATYFCQQGNTLPTFGAGTKLELKR	0.0165 µg/mL

Read the next record carefully.
Prompt: Param item = Chimeric 10C2 anti-CD4 antibody (antibody, human IgG1, kappa, V domains shown) VH: EVKLQQSGTELMKPGASVKISCKATGYTFSSYWIEWIKQRPGRGLEWIGEILPGSGSTNYNEEFTGRATFTADTFSNTAYMQLSSLTSEDSAVYYCARSVSASNWYFDVWGAGTTVTVSS VL: DIVMTQSPASLAVSLGQRATISCRASQSVSTSSYSYMHWYQQKPGQPPKFLIKYASNLESGVPARFSGSGSGTDFTLNIHPVEEEDTATYYCQHSWEIPPTFGGGTKLEIKR ; retrieve measured EC50.
Response: 0.0179 µg/mL
